# Study conditions: in PEG-400, 313.2 K
Assay metric: solubility (mole fraction)
Give a plain numeric answer without units written out.

Look up solubility (mole fraction): Cc1ccc(-c2ncc(Cl)cc2-c2ccc(S(C)(=O)=O)cc2)cn1
0.351

* * *

# Study conditions: in n-propanol, 308.2 K
Assay metric: solubility (mole fraction)
Number only, no unit.

Consider the molecule Cc1ccc(-c2ncc(Cl)cc2-c2ccc(S(C)(=O)=O)cc2)cn1 and give its measured solubility (mole fraction).
0.164

* * *

# Study conditions: in DMAc, 308.2 K
Assay metric: solubility (mole fraction)
# answer = number (no unit)

// query solubility (mole fraction) value for entry Cc1ccc(-c2ncc(Cl)cc2-c2ccc(S(C)(=O)=O)cc2)cn1
0.236

* * *

# Study conditions: in PEG-600, 303.2 K
Assay metric: solubility (mole fraction)

Which solubility (mole fraction) value is on record for Cc1ccc(-c2ncc(Cl)cc2-c2ccc(S(C)(=O)=O)cc2)cn1 ?
0.389

* * *

# Study conditions: in PEG-600, 293.2 K
Assay metric: solubility (mole fraction)
Could you respond with only the numeric value?

Fill in the blank: the reported solubility (mole fraction) of Cc1ccc(-c2ncc(Cl)cc2-c2ccc(S(C)(=O)=O)cc2)cn1 is ____.
0.329

* * *

# Study conditions: in formamide, 313.2 K
Assay metric: solubility (mole fraction)
A bare number is all that is needed in reply.

solubility (mole fraction) lookup needed for Cc1ccc(-c2ncc(Cl)cc2-c2ccc(S(C)(=O)=O)cc2)cn1 , thanks.
0.779

* * *

# Study conditions: in 1,4-dioxane, 313.2 K
Assay metric: solubility (mole fraction)
# respond with the number and nothing more

Which solubility (mole fraction) is reported for this molecule? Cc1ccc(-c2ncc(Cl)cc2-c2ccc(S(C)(=O)=O)cc2)cn1
0.265

* * *

# Study conditions: in ethylene glycol, 303.2 K
Assay metric: solubility (mole fraction)
Quick one: just the number, no unit, thanks!

I have this compound here, Cc1ccc(-c2ncc(Cl)cc2-c2ccc(S(C)(=O)=O)cc2)cn1 , and I need its recorded solubility (mole fraction).
0.129

* * *

# Study conditions: in formamide, 308.2 K
Assay metric: solubility (mole fraction)
Enter a number only.

For Cc1ccc(-c2ncc(Cl)cc2-c2ccc(S(C)(=O)=O)cc2)cn1 , what is its reported solubility (mole fraction)?
0.425

* * *

# Study conditions: in methanol, 313.2 K
Assay metric: solubility (mole fraction)

What value of solubility (mole fraction) has been recorded for this entry: Cc1ccc(-c2ncc(Cl)cc2-c2ccc(S(C)(=O)=O)cc2)cn1
0.125

* * *

# Study conditions: in isopropanol, 308.2 K
Assay metric: solubility (mole fraction)
Write the value as a bare number.

Which solubility (mole fraction) value belongs to Cc1ccc(-c2ncc(Cl)cc2-c2ccc(S(C)(=O)=O)cc2)cn1 ?
0.1

* * *

# Study conditions: in formamide, 303.2 K
Assay metric: solubility (mole fraction)

Which solubility (mole fraction) is listed for Cc1ccc(-c2ncc(Cl)cc2-c2ccc(S(C)(=O)=O)cc2)cn1 ?
0.225

* * *

# Study conditions: in NMP, 303.2 K
Assay metric: solubility (mole fraction)

For the compound Cc1ccc(-c2ncc(Cl)cc2-c2ccc(S(C)(=O)=O)cc2)cn1 , what solubility (mole fraction) is on record?
0.169

* * *

# Study conditions: in n-propanol, 303.2 K
Assay metric: solubility (mole fraction)
Keep the answer to the number alone.

Value lookup for solubility (mole fraction); key = Cc1ccc(-c2ncc(Cl)cc2-c2ccc(S(C)(=O)=O)cc2)cn1
0.111
